Would you kindly list koff for each of these binders?
# target.system: Human SIRPα v1 (antigen of the Octet and Biacore affinity measurements) (human, UniProt P78324 31-370, limits assumed)
# Sequence (P78324 31-370 limits assumed): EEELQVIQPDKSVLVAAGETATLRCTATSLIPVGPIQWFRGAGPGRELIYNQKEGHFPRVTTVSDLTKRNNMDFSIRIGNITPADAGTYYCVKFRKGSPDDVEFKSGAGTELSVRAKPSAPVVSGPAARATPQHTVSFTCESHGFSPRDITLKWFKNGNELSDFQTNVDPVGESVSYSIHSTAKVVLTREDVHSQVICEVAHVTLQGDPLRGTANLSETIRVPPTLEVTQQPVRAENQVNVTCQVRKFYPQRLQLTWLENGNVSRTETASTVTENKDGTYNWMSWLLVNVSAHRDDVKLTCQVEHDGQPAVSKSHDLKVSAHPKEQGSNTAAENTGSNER
# assay.method.text: SPR (Biacore), 1:1 binding model
Answers are plain numbers, in s⁻¹.

The cases that follow already have their koff on record.
| binder | koff, s⁻¹ |
| --- | --- |
| hu025.023 (antibody, V domains shown, Humanized 025; also called hu025.23) VH: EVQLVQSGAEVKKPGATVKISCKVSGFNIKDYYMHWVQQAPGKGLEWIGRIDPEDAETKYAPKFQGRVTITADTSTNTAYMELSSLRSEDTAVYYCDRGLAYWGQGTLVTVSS VL: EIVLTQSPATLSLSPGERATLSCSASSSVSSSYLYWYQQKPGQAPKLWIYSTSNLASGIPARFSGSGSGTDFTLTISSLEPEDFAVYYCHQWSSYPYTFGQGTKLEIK | 0.00172 |
| 025c (antibody, V domains shown, also called chimeric antibody 025c; parental antibody of 025c) VH: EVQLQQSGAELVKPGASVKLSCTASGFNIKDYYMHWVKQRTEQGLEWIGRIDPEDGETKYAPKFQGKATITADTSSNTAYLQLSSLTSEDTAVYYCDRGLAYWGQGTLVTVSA VL: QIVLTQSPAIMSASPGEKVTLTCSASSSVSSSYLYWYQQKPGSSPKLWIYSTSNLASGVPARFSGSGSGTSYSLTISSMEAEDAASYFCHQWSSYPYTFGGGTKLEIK | 0.000924 |
| hu025.021 (antibody, V domains shown, Humanized 025; also called hu025.21) VH: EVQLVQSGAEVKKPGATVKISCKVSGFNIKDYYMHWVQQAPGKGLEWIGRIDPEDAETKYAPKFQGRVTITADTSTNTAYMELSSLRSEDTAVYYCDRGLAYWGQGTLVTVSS VL: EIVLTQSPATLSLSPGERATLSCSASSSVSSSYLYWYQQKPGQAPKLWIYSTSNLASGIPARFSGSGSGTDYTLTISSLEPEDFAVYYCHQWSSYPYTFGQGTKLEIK | 0.00183 |

# map each binder to its koff
1. hu025.060 (antibody, V domains shown, Humanized 025; also called hu025.60) VH: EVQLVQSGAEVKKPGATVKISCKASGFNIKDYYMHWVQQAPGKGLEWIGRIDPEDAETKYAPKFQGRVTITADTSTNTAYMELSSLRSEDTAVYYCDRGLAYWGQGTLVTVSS VL: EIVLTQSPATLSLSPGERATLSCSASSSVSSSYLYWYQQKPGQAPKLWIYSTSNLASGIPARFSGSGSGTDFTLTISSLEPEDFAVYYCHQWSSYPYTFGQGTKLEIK
2. hu025.059 (antibody, V domains shown, Humanized 025; also called hu025.59) VH: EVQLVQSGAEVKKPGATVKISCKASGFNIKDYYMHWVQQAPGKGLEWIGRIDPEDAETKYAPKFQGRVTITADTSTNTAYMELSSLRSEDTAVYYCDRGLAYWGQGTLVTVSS VL: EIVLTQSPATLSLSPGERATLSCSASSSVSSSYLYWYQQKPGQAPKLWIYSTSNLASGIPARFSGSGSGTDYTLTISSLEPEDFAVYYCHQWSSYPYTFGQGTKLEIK

Output:
[0.00111, 0.00123]
